system: GP2D (KRAS G12D) cells; test: 2D cell viability assay (CellTiter-Glo); assay type: cell-based; details: GP2d, 96 h, 4 days
# reported EC50; entries follow
API: value field is a number in nM; no unit string.

compound | output unit | EC50
C#Cc1c(F)ccc2cc(O)cc(-c3cc4c5c(nc(OC[C@@]67CCCN6C[C@H](F)C7)nc5c3F)N3C[C@H]5CC[C@H](N5)[C@H]3CC4)c12 [Example 52] | nM | 1
Oc1cc(-c2nc3c4c(nc(OC[C@@]56CCCN5C[C@H](F)C6)nc4c2F)N2C[C@H]4CC[C@H](N4)[C@H]2CO3)c2c(Cl)c(F)ccc2c1 [Example 9] | nM | 20

Prompt: // fetch EC50 given entry Oc1cc(-c2nc3c4c(nc(OC[C@@]56CCCN5C[C@H](F)C6)nc4c2F)N2C[C@H]4CC[C@H](N4)[C@H]2CC3)c2c(F)c(Cl)ccc2c1 [Example 40]
Completion: 19

Prompt: // fetch EC50 given entry Oc1cc(-c2nc3c4c(nc(OC[C@@]56CCCN5C[C@H](F)C6)nc4c2F)N2C[C@H]4CC[C@H](N4)[C@H]2CO3)c2c(OC(F)(F)F)c(F)ccc2c1 [Example 7]
Completion: 16

---

# reported IC50; entries follow
biological target: GDP-loaded KRAS G12D (Homo sapiens (Human), UniProt P01116, G12D); assay: KRAS G12D (GDP) biochemical assay (TR-FRET probe displacement); settings: 2 hours
Sequence (P01116-2 other isoform, or with tags, fused parts or gaps G12D): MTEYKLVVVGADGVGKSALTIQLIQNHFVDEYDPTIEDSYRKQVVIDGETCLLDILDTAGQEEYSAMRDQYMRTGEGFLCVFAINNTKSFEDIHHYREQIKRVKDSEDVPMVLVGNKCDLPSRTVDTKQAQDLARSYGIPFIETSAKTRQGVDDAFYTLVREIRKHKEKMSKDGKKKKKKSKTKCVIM
API: value field is a number in nM; no unit string.

Recorded results for 5 compounds are shown here.
chemical structure | IC50 / nM
C#Cc1c(F)ccc2cccc(-c3nc4c5c(nc(OC[C@@]67CCCN6C[C@H](F)C7)nc5c3F)N3C[C@H]5CC[C@H](N5)[C@H]3CCC4)c12 | 0.1
C#Cc1c(F)ccc2cccc(-c3nc4c5c(nc(OC[C@@]67CCCN6C[C@H](F)C7)nc5c3F)N3C[C@@]5(C)CC[C@H](N5)[C@H]3CC4)c12 | 2
C#Cc1c(F)ccc2cccc(-c3nc4c5c(nc(OC[C@@]67CCCN6C[C@H](F)C7)nc5c3F)N3C[C@H]5CC[C@H](N5)[C@H]3CC[C@@H]4C)c12 | 5.7
Oc1cc(-c2nc3c4c(nc(OC[C@@]56CCCN5C[C@H](F)C6)nc4c2F)N2C[C@H]4CC[C@H](N4)[C@H]2CC3)c2ccccc2c1 | 1
C#Cc1c(F)ccc2cccc(-c3nc4c5c(nc(OC[C@@]67CCCN6C[C@H](F)C7)nc5c3F)N3C[C@H]5CC[C@H](N5)[C@@H]3CC4)c12 | 18.1

Prompt: Look up GDP-loaded KRAS G12D (Homo sapiens (Human), UniProt P01116, G12D) data: IC50 of `C#Cc1c(F)ccc2cccc(-c3nc4c5c(nc(OC[C@@]67CCCN6[C@H](CSc6cc(C(F)(F)F)ncn6)CC7)nc5c3F)N3C[C@H]5CC[C@H](N5)[C@H]3CCC4)c12` , then report it.
Completion: 0.02

Prompt: Look up GDP-loaded KRAS G12D (Homo sapiens (Human), UniProt P01116, G12D) data: IC50 of `Oc1cc(-c2nc3c4c(nc(OCC5(CN6CC[C@H](OC(F)(F)F)C6)CC5)nc4c2F)N2C[C@H]4CC[C@H](N4)[C@H]2CC3)c2c(OC(F)(F)F)c(F)ccc2c1` , then report it.
Completion: 5.3

Prompt: Look up GDP-loaded KRAS G12D (Homo sapiens (Human), UniProt P01116, G12D) data: IC50 of `C#Cc1c(F)ccc2cccc(-c3nc4c5c(nc(OC[C@@]67CCCN6C[C@H](F)C7)nc5c3F)N3C[C@H]5CC[C@H](N5)[C@@H]3[C@@H](CC)C4)c12` , then report it.
Completion: 100

Prompt: Look up GDP-loaded KRAS G12D (Homo sapiens (Human), UniProt P01116, G12D) data: IC50 of `Oc1cc(-c2nc3c4c(nc(OC[C@@]56CCCN5C[C@H](F)C6)nc4c2F)N2C[C@H]4CC[C@H](N4)[C@H]2CO3)c2c(OC3CC3)c(F)ccc2c1` , then report it.
Completion: 2

---

biological target: GDP-loaded KRAS G12D (Homo sapiens (Human), UniProt P01116, G12D); assay: KRAS G12D (GDP) biochemical assay (TR-FRET probe displacement); settings: 2 hours
# reported pIC50; entries follow
FYI, pIC50 means -log10 of a concentration in mol per litre.

Prompt: // fetch pIC50 given entry `C#Cc1c(F)ccc2cc(O)cc(-c3nc4c5c(nc(OC[C@@]67CCCN6C[C@H](F)C7)nc5c3F)N3C[C@H]5CC[C@H](N5)[C@@H]3[C@@H](C)[C@H]4C)c12`
Completion: 9.40

Prompt: // fetch pIC50 given entry `C#Cc1c(F)ccc2cc(O)cc(-c3nc4c5c(nc(OC[C@]67CCCN6C[C@H](OC(C(F)(F)F)(C(F)(F)F)C(F)(F)F)C7)nc5c3F)N3C[C@H]5CC[C@H](N5)[C@H]3CC4)c12`
Completion: 7.08

Prompt: // fetch pIC50 given entry `C#Cc1c(F)ccc2cc(O)cc(-c3nc4c5c(nc(OCC6(CN7CCC(COC(C(F)(F)F)(C(F)(F)F)C(F)(F)F)CC7)CC6)nc5c3F)N3C[C@H]5CC[C@H](N5)[C@H]3CC4)c12`
Completion: 8.72

Prompt: // fetch pIC50 given entry `C#Cc1c(F)ccc2cccc(-c3nc4c5c(nc(OCC67CCCN6CCC7)nc5c3F)N3C[C@H]5CC[C@H](N5)[C@@H]3[C@@H](C)C4)c12`
Completion: 8.19

Prompt: // fetch pIC50 given entry `C#Cc1c(F)ccc2cccc(-c3nc4c5c(nc(OC[C@@]67CCCN6C[C@H](F)C7)nc5c3F)N3C[C@H]5CC[C@H](N5)[C@@H]3[C@@H](C)C4)c12`
Completion: 8.41

---

system: GP2D (KRAS G12D) cells; test: 2D cell viability assay (CellTiter-Glo); format: cell-based; conditions: GP2d, 96 h, 4 days
pEC50: −log10 of the molar value.
Hi, to clarify the labels: rule met covers pEC50 from 8 upward, rule not met covers anything below 8.

compound | group
C#Cc1c(F)ccc2cc(O)cc(-c3nc4c5c(nc(OCC6(CN7CCC(OC(F)(F)F)CC7)CC6)nc5c3F)N3C[C@H]5CC[C@H](N5)[C@H]3CC4)c12 [Example 106] | rule met
C#Cc1c(F)ccc2cccc(-c3nc4c5c(nc(OC[C@@]67CCCN6C[C@H](F)C7)nc5c3F)N3C[C@H]5CC[C@H](N5)[C@H]3CCO4)c12 [Example 124] | rule not met
C#Cc1c(F)ccc2cccc(-c3nc4c5c(nc(OC[C@@]67CCCN6C[C@@]6(CC6(F)F)C7)nc5c3F)N3C[C@H]5CC[C@H](N5)[C@@H]3[C@@H](C)C4)c12 [Example 85] | rule not met
C#Cc1c(F)ccc2cccc(-c3nc4c5c(nc(OC[C@@]67CCCN6[C@H](COc6cc(C(F)(F)F)ncn6)CC7)nc5c3F)N3C[C@H]5CC[C@H](N5)[C@H]3CC4)c12 [Example 152] | rule met
Fc1c(-c2cccc3ccccc23)nc2c3c(nc(OC[C@@]45CCCN4C[C@H](F)C5)nc13)N1C[C@H]3CC[C@H](N3)[C@H]1CO2 [Example 46] | rule not met

Prompt: I'd appreciate it if you could say whether Fc1ccc2c(-c3nc4c5c(nc(OC[C@@]67CCCN6C[C@H](F)C7)nc5c3F)N3C[C@H]5CC[C@H](N5)[C@H]3CO4)cccc2c1 [Example 66] has pEC50 at least equal to 8.
Completion: rule not met

Prompt: I'd appreciate it if you could say whether Oc1cc(-c2nc3c4c(nc(OCC5(CN6CC[C@H](OC(F)(F)F)C6)CC5)nc4c2F)N2C[C@H]4CC[C@H](N4)[C@H]2CC3)c2c(OC(F)(F)F)c(F)ccc2c1 [Example 103] has pEC50 at least equal to 8.
Completion: rule not met

Prompt: I'd appreciate it if you could say whether C#Cc1c(F)ccc2cc(O)cc(-c3cc4c5c(nc(OC[C@@]67CCCN6C[C@H](F)C7)nc5c3F)N3C[C@H]5CC[C@H](N5)[C@H]3CO4)c12 [Example 57] has pEC50 at least equal to 8.
Completion: rule not met

Prompt: I'd appreciate it if you could say whether C#Cc1c(F)ccc2cccc(-c3nc4c5c(nc(OC[C@@]67CCCN6C[C@H](F)C7)nc5c3F)N3C[C@H]5CC[C@H](N5)[C@H]3CCCC4)c12 [Example 188] has pEC50 at least equal to 8.
Completion: rule not met

---

# reported EC50; entries follow
tested on: GP2D (KRAS G12D) cells; test: 2D cell viability assay (CellTiter-Glo); type: cell-based; details: GP2d, 96 h, 4 days
API: value field is a number in nM; no unit string.

Recorded results for 2 molecules are shown here.
chemical structure | subject of test | output unit | EC50
C#Cc1c(F)ccc2cc(O)cc(-c3nc4c5c(nc(OCC6(CN7CC[C@H](C(F)(F)F)C7)CC6)nc5c3F)N3C[C@H]5CC[C@H](N5)[C@H]3CO4)c12 | GP2D (KRAS G12D) cells | nM | 7
C#Cc1c(F)ccc2cc(O)cc(-c3nc4c5c(nc(OC[C@@]67CCCN6[C@H](COc6cnc(C(F)(F)F)cn6)CC7)nc5c3F)N3C[C@H]5CC[C@H](N5)[C@H]3CC4)c12 | GP2D (KRAS G12D) cells | nM | 0.3

Attention now shifts to the item below.
Prompt: // fetch EC50 given entry `C#Cc1c(F)ccc2cc(O)cc(-c3nc4c5c(nc(OCC6(CN7CCC(COC(C(F)(F)F)(C(F)(F)F)C(F)(F)F)CC7)CC6)nc5c3F)N3C[C@H]5CC[C@H](N5)[C@H]3CC4)c12`
Completion: 3.1
